subject of test: human V1a receptor (Homo sapiens)
procedure text: Cellular in vitro test for determination of the vasopressin receptor activity (aequorin luminescence, CHO cells), human V1a
particulars: cell line transfected with the human V1a receptor, antagonism of [Arg8]-vasopressin, read-out: IC50 hV1a
pIC50: −log10 of the molar value.
# pIC50 per record follows
endpoint: pIC50

molecule="CC(C)(NC(=O)Cn1nc(-c2ccc(Cl)cc2)n(CC(O)C(F)(F)F)c1=O)c1cccc(C(F)(F)F)c1 (single isomer, unassigned)" quantitative_result=7.92
molecule=Cc1c(-c2ccc(Cl)cc2)n(C2CC2)c(=O)n1CC(=O)N[C@@H](C)c1cccc2ccccc12 quantitative_result=6.64
molecule=CC(C)(NC(=O)Cn1nc(-c2ccc(Cl)cc2)n(Cc2cccc(F)c2)c1=O)c1cccc(C(F)(F)F)c1 quantitative_result=6.70

* * *

subject of test: human V2 receptor (Homo sapiens, UniProt P30518)
Sequence (P30518 whole entry): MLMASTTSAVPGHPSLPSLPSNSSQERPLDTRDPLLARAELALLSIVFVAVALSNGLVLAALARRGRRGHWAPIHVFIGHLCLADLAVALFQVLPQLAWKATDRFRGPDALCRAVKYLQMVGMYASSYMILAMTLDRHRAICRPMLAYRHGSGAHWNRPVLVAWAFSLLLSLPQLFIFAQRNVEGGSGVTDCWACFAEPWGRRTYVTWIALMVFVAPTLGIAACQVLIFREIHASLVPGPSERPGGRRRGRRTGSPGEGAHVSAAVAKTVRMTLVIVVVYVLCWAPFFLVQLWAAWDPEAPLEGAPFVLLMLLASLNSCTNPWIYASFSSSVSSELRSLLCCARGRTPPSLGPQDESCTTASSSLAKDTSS
procedure text: Cellular in vitro test for determination of the vasopressin receptor activity (aequorin luminescence, CHO cells), human V2
particulars: cell line transfected with the human V2 receptor, antagonism of [Arg8]-vasopressin, read-out: IC50 hV2
pIC50: −log10 of the molar value.
# key: entry, value: pIC50
endpoint: pIC50

compound="NC(=O)C(NC(=O)Cn1nc(-c2ccc(Cl)cc2)n(CC(O)C(F)(F)F)c1=O)c1cccc(C(F)(F)F)c1 (stereo not drawn)" endpoint=pIC50 quantitative_result=8.40
compound=COc1ccc(Cn2c(-c3ccc(Cl)cc3)nn(CC(=O)NCc3cccc(C(F)(F)F)c3)c2=O)cc1 endpoint=pIC50 quantitative_result=7.92
compound=Cc1c(-c2ccc(Cl)cc2)n(C2CC2)c(=O)n1CC(=O)N[C@@H](C)c1cccc2ccccc12 endpoint=pIC50 quantitative_result=7.20
compound=CC(C)(NC(=O)Cn1nc(-c2ccc(Cl)cc2)n(CC(F)(F)F)c1=O)c1cccc(C(F)(F)F)c1 endpoint=pIC50 quantitative_result=7.64
compound=Cc1ccc(-c2nn(CC(=O)NC(C)(C)c3cccc(C(F)(F)F)c3)c(=O)n2Cc2ccccc2F)s1 endpoint=pIC50 quantitative_result=8.05
compound=COc1ccccc1CCNC(=O)Cn1nc(-c2ccc(Cl)cc2)n(C2CC2)c1=O endpoint=pIC50 quantitative_result=6.38
compound=CC(C)(NC(=O)Cn1nc(-c2ccc(Cl)cc2Cl)n(C2CC2)c1=O)c1cccc(C(F)(F)F)c1 endpoint=pIC50 quantitative_result=7.08
compound="CN(C)C(CNC(=O)Cn1nc(-c2ccc(Cl)cc2)n(Cc2ccccc2F)c1=O)c1ccccc1Cl (stereo not drawn)" endpoint=pIC50 quantitative_result=6.13
compound="O=C(Cn1nc(-c2ccc(Cl)cc2)n(CC(O)C(F)(F)F)c1=O)NCCc1ccccc1OC(F)(F)F (stereo not drawn)" endpoint=pIC50 quantitative_result=8.05
compound=CC(C)(NC(=O)Cn1nc(-c2ccc(F)c(F)c2)n(Cc2ccccc2F)c1=O)c1cccc(C(F)(F)F)c1 endpoint=pIC50 quantitative_result=7.52
compound=CC(C)(NC(=O)Cn1nc(-c2ccc(Cl)cc2)n(C2CC2)c1=O)c1cccc(C(F)(F)F)c1 endpoint=pIC50 quantitative_result=7.59
compound="O=C(Cn1nc(-c2ccc(Cl)cc2)n(C2CC2)c1=O)NC(C(=O)NC1CC1)c1ccccc1C(F)(F)F (stereo not drawn)" endpoint=pIC50 quantitative_result=5.94
compound=CC(C)(NC(=O)Cn1nc(-c2ccc(Cl)cc2)n(CC(N)=O)c1=O)c1cccc(C(F)(F)F)c1 endpoint=pIC50 quantitative_result=7.03
compound=O=C(Cn1nc(-c2ccc(Cl)cc2)n(Cc2ccccc2F)c1=O)NC1(Cc2ccccc2C(F)(F)F)CC1 endpoint=pIC50 quantitative_result=6.72
compound="O=C(Cn1nc(-c2ccc(Cl)cc2)n(CC(O)C(F)(F)F)c1=O)NCC(F)(F)c1cccc(C(F)(F)F)c1 (stereo not drawn)" endpoint=pIC50 quantitative_result=8.10

* * *

subject of test: human V1a receptor (Homo sapiens)
procedure text: Cellular in vitro test for determination of the vasopressin receptor activity (aequorin luminescence, CHO cells), human V1a
particulars: cell line transfected with the human V1a receptor, antagonism of [Arg8]-vasopressin, read-out: IC50 hV1a
pIC50: −log10 of the molar value.
endpoint: pIC50

molecule="O=C(Cn1nc(-c2ccc(Cl)cc2)n(CC(O)C(F)(F)F)c1=O)NCC(F)(F)c1cccc(C(F)(F)F)c1 (stereo not drawn) [Example 364]" endpoint=pIC50 quantitative_result=7.66
molecule="CCC(O)Cn1c(-c2ccc(Cl)cc2)nn(CC(=O)NC(C)(C)c2cccc(C(F)(F)F)c2)c1=O (single isomer, unassigned) [Example 485]" endpoint=pIC50 quantitative_result=7.92
molecule="Cc1csc(-c2nn(CC(=O)NCc3cccc(C(F)(F)F)c3)c(=O)n2CC(C)C)c1Cl [Example 496]" endpoint=pIC50 quantitative_result=6.78

* * *

subject of test: human V1a receptor (Homo sapiens, UniProt P37288)
Sequence (P37288 whole entry): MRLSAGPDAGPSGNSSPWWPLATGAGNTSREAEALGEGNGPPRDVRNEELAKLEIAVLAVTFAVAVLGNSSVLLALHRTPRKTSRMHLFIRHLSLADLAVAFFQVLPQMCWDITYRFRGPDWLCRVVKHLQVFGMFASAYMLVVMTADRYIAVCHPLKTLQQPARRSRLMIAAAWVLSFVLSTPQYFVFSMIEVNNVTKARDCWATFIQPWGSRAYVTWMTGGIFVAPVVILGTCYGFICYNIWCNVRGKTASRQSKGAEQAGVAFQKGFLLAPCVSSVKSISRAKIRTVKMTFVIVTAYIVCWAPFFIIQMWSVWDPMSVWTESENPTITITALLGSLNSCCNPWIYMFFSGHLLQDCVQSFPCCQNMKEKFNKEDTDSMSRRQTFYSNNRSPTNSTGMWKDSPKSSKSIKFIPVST
procedure text: Cellular in vitro test for determination of the vasopressin receptor activity (aequorin luminescence, CHO cells), human V1a
particulars: cell line transfected with the human V1a receptor, antagonism of [Arg8]-vasopressin, read-out: IC50 hV1a
pIC50: −log10 of the molar value.
# pIC50 annotations
endpoint: pIC50

compound="O=C(Cn1nc(-c2ccc(Cl)cc2)n(C2CC2)c1=O)NC(C(=O)NC1CC1)c1ccccc1C(F)(F)F (stereo not drawn)" endpoint=pIC50 quantitative_result=7.41
compound=O=C(CCn1nc(-c2ccc(Cl)cc2)n(C2CC2)c1=O)NCc1cccc(C(F)(F)F)c1 endpoint=pIC50 quantitative_result=5.20
compound="CC(C(=O)NC(C)(C)c1cccc(C(F)(F)F)c1)n1cc(-c2ccc(Cl)cc2)n(C2CC2)c1=O (stereo not drawn)" endpoint=pIC50 quantitative_result=5.20
compound=CN(C)C(=O)c1cccc(Cn2c(-c3ccc(Cl)cc3)nn(CC(=O)NC(C)(C)c3cccc(C(F)(F)F)c3)c2=O)c1 endpoint=pIC50 quantitative_result=6.48
compound=CSc1ccccc1CNC(=O)Cn1nc(-c2ccc(Cl)cc2)n(Cc2ccccc2F)c1=O endpoint=pIC50 quantitative_result=7.72
compound=CC(C)(NC(=O)Cn1nc(-c2ccc(Cl)cc2)n(CC(=O)O)c1=O)c1cccc(C(F)(F)F)c1 endpoint=pIC50 quantitative_result=6.36
compound=O=C(Cn1cc(-c2ccc(Cl)s2)n(Cc2ccccc2F)c1=O)NCc1cccc(C(F)(F)F)c1 endpoint=pIC50 quantitative_result=7.60
compound=CS(=O)(=O)c1ccccc1CNC(=O)Cn1nc(-c2ccc(Cl)cc2)n(Cc2ccccc2F)c1=O endpoint=pIC50 quantitative_result=8.05
compound="CCn1c(-c2ccc(Cl)cc2)cn(CC(=O)NC(C)c2cccc(C(F)(F)F)c2)c1=O (stereo not drawn)" endpoint=pIC50 quantitative_result=6.85
compound=O=C(Cn1nc(-c2ccc(Cl)cc2)n(Cc2ccc(F)cc2)c1=O)NCc1cccc(C(F)(F)F)c1 endpoint=pIC50 quantitative_result=6.02
compound=O=C(Cn1nc(-c2ccc(Cl)cc2)n(C2CC2)c1=O)NC1(Cc2ccccc2C(F)(F)F)CC1 endpoint=pIC50 quantitative_result=7.62
compound="CC(NC(=O)Cn1nc(-c2ccc(Cl)s2)n(Cc2ccccc2F)c1=O)c1nccc2ccccc12 (stereo not drawn)" endpoint=pIC50 quantitative_result=7.74
compound=COc1ccc(Cn2c(-c3ccc(Cl)cc3)nn(CC(=O)NC(C)(C)c3cccc(C(F)(F)F)c3)c2=O)cc1 endpoint=pIC50 quantitative_result=6.77
compound=COc1cc(Cl)ccc1-c1nn(CC(=O)NC(C)(C)c2cccc(C(F)(F)F)c2)c(=O)n1Cc1ccccc1F endpoint=pIC50 quantitative_result=7.14
compound=CC(C)(NC(=O)Cn1nc(-c2ccc(F)c(F)c2)n(Cc2ccccc2F)c1=O)c1cccc(C(F)(F)F)c1 endpoint=pIC50 quantitative_result=6.78

* * *

subject of test: human V2 receptor (Homo sapiens, UniProt P30518)
procedure text: Cellular in vitro test for determination of the vasopressin receptor activity (aequorin luminescence, CHO cells), human V2
particulars: cell line transfected with the human V2 receptor, antagonism of [Arg8]-vasopressin, read-out: IC50 hV2
Excerpt: B-1. Cellular In Vitro Test for Determination of the Vasopressin Receptor Activity The identification of agonists and antagonists of the V1a- and V2-vasopressin receptors in man and the rat and the quantification of the activity of the compounds according to the invention are effected by means of recombinant cell lines. […]
Overview of recorded IC50 for various compounds
endpoint: IC50

compound="COC(=O)[C@@H](Cc1ccccc1C(F)(F)F)NC(=O)Cn1nc(-c2ccc(Cl)cc2)n(C2CC2)c1=O [Example 321]" result="510 nM"
compound="C=C(C)Cn1c(-c2ccc(Cl)cc2)nn(CC(=O)NC(C)(C)c2cccc(C(F)(F)F)c2)c1=O [Example 423]" result="15 nM"
compound="Cc1cc(Cl)ccc1-c1nn(CC(=O)NCCc2ccccc2C(F)(F)F)c(=O)n1Cc1ccccc1F [Example 241]" result="271 nM"
compound="CC(C)(NC(=O)Cn1nc(-c2ccc(Cl)cc2)n(Cc2cccc(F)c2)c1=O)c1cccc(C(F)(F)F)c1 [Example 433]" result="9 nM"

Provenance of the data: patent US8084481B2
